species: Rattus norvegicus; test: Concentration that relaxed KCl-induced contractions in rat detrusor strips by 50%; assay type: functional
measurement kind: pIC50
Entry type: numeric. Quantity: pIC50, the -log10 of concentration in molar units.

These solved cases illustrate the format of a correct answer.
>>> df
                         smiles_structure  measured_number
0  O=C(O)c1cccc2c1Cc1c-2[nH]c2ccc(Cl)cc12             4.65
1   O=C(O)c1cccc2c1Cc1c-2[nH]c2ccc(I)cc12             5.00
2       O=C(O)c1cccc2c1[nH]c1c3ccccc3oc21             4.52

Let us move to another entry and its pIC50.
Query :: Name the recorded pIC50 for O=C(O)c1cccc2c1[nH]c1c3cc(Br)ccc3oc21 .
Result :: 4.82

----------
organism: Rattus norvegicus; assay: Concentration that relaxed KCl-induced contractions in rat detrusor strips by 50%; assay type: functional
pIC50: −log10 of the molar value.
Given measured pIC50, output Met if it is greater than or equal to 5 and Not met if not.

Observe how each entry below is paired with its result.
In [3]: df
Out[3]:
                           smiles_structure  group_label
0  O=C(O)c1cccc2c1Cc1c-2[nH]c2ccc(OC(F)(F)F)cc12      Not met
1  O=C(O)c1cccc2c1[nH]c1c3cc([N+](=O)[O-])ccc3oc21          Met
2  NS(=O)(=O)c1ccc2[nH]c3c(c2c1)Cc1c(C(=O)O)cccc1-3      Not met

Query :: Assess whether reported pIC50 for O=Cc1cccc2c1[nH]c1c3cc(Br)ccc3oc21 sits at 5 or higher.
Result :: Not met

Query :: Assess whether reported pIC50 for O=C(O)c1cccc2c1[nH]c1c3cc(Cl)ccc3oc21 sits at 5 or higher.
Result :: Met

Query :: Assess whether reported pIC50 for O=C(O)c1cccc2c1Cc1c-2[nH]c2ccc(Br)cc12 sits at 5 or higher.
Result :: Met

Query :: Assess whether reported pIC50 for O=C(O)c1cccc2c1[nH]c1c3cc(I)ccc3oc21 sits at 5 or higher.
Result :: Met

Query :: Assess whether reported pIC50 for NC(=O)c1cccc2c1[nH]c1c3cc(Br)ccc3oc21 sits at 5 or higher.
Result :: Not met

Query :: Assess whether reported pIC50 for CC1(C)c2ccc([N+](=O)[O-])cc2-c2[nH]c3c(C(=O)O)cccc3c21 sits at 5 or higher.
Result :: Met
